# target_system: human Cot catalytic domain (30-397 amino acids) (Homo sapiens)
# Construct: Purified recombinant human Cot catalytic domain (30-397 amino acids) was purchased from Cama Biosciences; purchased Cama Biosciences (so in the source)
# procedure_details: High Throughput Cot Biochemical Assay (KinEASE TR-FRET)
# settings: Cot biochemical HTRF (KinEASE TR-FRET) assay; read-out: IC50 HTRF
measured_parameter: IC50 (nM)

// below: answered compounds
Sure, the documented IC50 for CC(C)(C)N1CCC(n2cc([C@@H](Nc3cc(Cl)c4ncc(C#N)c(NCCc5ccccc5)c4c3)c3ccc(Cl)cc3)nn2)CC1 [Example 703] is 95

Sure, the documented IC50 for CC(C)(C)N1CCC(n2cc([C@@H](Nc3cc(Cl)c4ncc(C#N)c(Nc5ccc(Cl)c(Cl)c5)c4c3)c3ccc(Cl)cc3)nn2)CC1 [Example 765] is 70

Sure, the documented IC50 for Cc1ccccc1CNc1c(C#N)cnc2c(Cl)cc(N[C@@H](c3ccc(Cl)cc3)c3cn(C4CCN(C(C)(C)C)CC4)nn3)cc12 [Example 680] is 44

Sure, the documented IC50 for C[C@@H](Nc1c(C#N)cnc2c(Cl)cc(N[C@@H](c3ccccc3)c3cn(C4CCN(C(C)(C)C)CC4)nn3)cc12)C(C)(C)C [Example 485] is 306

(P) N#Cc1cnc2c(Cl)cc(N[C@@H](c3cccc(-c4ncco4)c3)c3cn(C4COC4)nn3)cc2c1Nc1cnc(F)c(F)c1 [Example 499]
(Q) N#Cc1cnc2c(Cl)cc(N[C@@H](c3ccc(F)cc3)c3cn(C4COC4)nn3)cc2c1Nc1cnc(F)c(F)c1 [Example 511]
[ask] Endpoint returns whichever of P and Q has the numerically higher IC50. To answer, give the label that identifies your chosen option.
[reply] Q

(1) CN(C)Cc1ccccc1[C@H](Nc1cc(Cl)c2ncc(C#N)c(Nc3ccc(F)c(Cl)c3)c2c1)c1cn(C2CCN(C(C)(C)C)CC2)nn1 [Example 720]
(2) CCN1CCC(n2cc([C@@H](Nc3cc(Cl)c4ncc(C#N)c(Nc5cccc(Cl)c5)c4c3)c3ccccc3)nn2)[C@H](O)C1 (stereo partly shown) [Example 516]
(3) COC[C@H](C)Nc1c(C#N)cnc2c(Cl)cc(N[C@@H](c3ccccc3)c3cn(C4CCN(C(C)(C)C)CC4)nn3)cc12 [Example 557]
[ask] Hello, I need these entries ordered by IC50, highest reading first. Thanks! Use the labels to give the requested order.
[reply] 3, 1, 2
(3: 999 nM, 1: 72 nM, 2: 4 nM)

(A) CC(C)(C)N1CCC(n2cc([C@@H](Nc3cc(Cl)c4ncc(C#N)c(Nc5cccc(C#N)c5)c4c3)c3ccc(Cl)cc3)nn2)CC1 [Example 753]
(B) CC(C)(C)N1CCC(n2cc([C@@H](Nc3cc(Cl)c4ncc(C#N)c(Nc5ccc(F)c(Cl)c5)c4c3)c3cccc(C(=O)N4CC(O)C4)c3)nn2)CC1 [Example 594]
(C) N#Cc1cnc2c(Cl)cc(N[C@H](c3cn(C4CC4)nn3)c3ccccc3F)cc2c1Nc1cnc(F)c(F)c1 [Example 430]
(D) N#Cc1cnc2c(Cl)cc(N[C@@H](c3ccccc3)c3cn([C@@H]4CCN(C5COC5)C[C@H]4O)nn3)cc2c1Nc1ccc(F)c(Cl)c1 [Example 497]
(E) COc1ccccc1CNc1c(C#N)cnc2c(Cl)cc(N[C@@H](c3ccc(F)cc3)c3cn(C4CCN(C(C)(C)C)CC4)nn3)cc12 [Example 442]
[ask] Order the records, beginning with the lowest IC50 and ending with the highest. Use the labels to give the requested order.
[reply] B, C, D, A, E
(B: 1 nM, C: 7 nM, D: 26 nM, A: 88 nM, E: 193 nM)

(a) CC(C)(C)N1CCC(n2cc([C@@H](Nc3cc(Cl)c4ncc(C#N)c(N)c4c3)c3ccccc3)nn2)CC1 [Example 504]
(b) [2H][C@](Nc1cc(Cl)c2ncc(C#N)c(Nc3ccc(Cl)c(Cl)c3F)c2c1)(c1ccccc1)c1c[nH]nn1 [Example 463]
[ask] Endpoint returns whichever of a and b has the numerically higher IC50. To answer, give the label that identifies your chosen option.
[reply] a

(1) N#Cc1cnc2c(Cl)cc(N[C@H](c3c[nH]nn3)c3ccccc3F)cc2c1Nc1cnc(F)c(F)c1 [Example 447]
(2) COC(=O)c1cccc([C@H](Nc2cc(Cl)c3ncc(C#N)c(Nc4ccc(F)c(Cl)c4)c3c2)c2cn(C3CCN(C(C)(C)C)CC3)nn2)c1 [Example 728]
[ask] Could you determine which record has the numerically smaller IC50? Candidates: 1 and 2 To answer, give the label that identifies your chosen option.
[reply] 2
(2: 3 nM, 1: 23 nM)

---

# target_system: human Cot catalytic domain (30-397 amino acids) (Homo sapiens, UniProt P41279)
# Construct: Purified recombinant human Cot catalytic domain (30-397 amino acids) was purchased from Cama Biosciences; purchased Cama Biosciences (so in the source)
# Sequence (P41279 30-397): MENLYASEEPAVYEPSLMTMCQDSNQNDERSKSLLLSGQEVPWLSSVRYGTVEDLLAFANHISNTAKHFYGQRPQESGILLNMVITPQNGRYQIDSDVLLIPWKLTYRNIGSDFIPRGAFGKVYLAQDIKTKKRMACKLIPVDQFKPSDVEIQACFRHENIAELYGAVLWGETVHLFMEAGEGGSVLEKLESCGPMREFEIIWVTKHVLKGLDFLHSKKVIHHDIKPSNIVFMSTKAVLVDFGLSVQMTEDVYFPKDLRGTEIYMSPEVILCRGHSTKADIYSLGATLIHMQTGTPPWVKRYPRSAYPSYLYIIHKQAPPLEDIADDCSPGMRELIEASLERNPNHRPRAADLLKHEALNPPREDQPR
# procedure_details: High Throughput Cot Biochemical Assay (KinEASE TR-FRET)
# settings: Cot biochemical HTRF (KinEASE TR-FRET) assay; read-out: IC50 HTRF
pIC50: −log10 of the molar value.
measured_parameter: pIC50

// below: answered molecules
Sure, the documented pIC50 for `CCOc1ccc(Nc2c(C#N)cnc3c(Cl)cc(N[C@@H](c4ccc(Cl)cc4)c4c[nH]nn4)cc23)cc1Cl` is 5.84

Sure, the documented pIC50 for `CNc1cccc([C@H](Nc2cc(Cl)c3ncc(C#N)c(Nc4ccc(F)c(Cl)c4)c3c2)c2cn(C3CCN(C(C)(C)C)CC3)nn2)c1` is 8.22

(A) CC(C)(C)N1CCC(n2cc([C@@H](Nc3cc(Cl)c4ncc(C#N)c(Nc5ccc(F)c(C#N)c5F)c4c3)c3ccccc3)nn2)CC1
(B) CC(C)(C)N1CCC(n2cc([C@@H](Nc3cc(Cl)c4ncc(C#N)c(NN5CCCCCC5)c4c3)c3ccccc3)nn2)CC1
(C) N#Cc1cnc2c(Cl)cc(N[C@@H](c3ccc(F)cc3)c3c[nH]nn3)cc2c1NCc1ccsc1
(D) CC(C)(C)N1CCC(n2cc([C@@H](Nc3cc(Cl)c4ncc(C#N)c(NC5CCCC(O)C5)c4c3)c3ccc(F)cc3)nn2)CC1 (stereo partly shown) [Example 441]
(E) N#Cc1cnc2c(Cl)cc(N[C@@H](c3ccc(Cl)cc3)c3c[nH]nn3)cc2c1Nc1cnc(F)c(F)c1
[ask] Order the records, beginning with the lowest pIC50 and ending with the highest. Use the labels to give the requested order.
[reply] D, C, B, E, A

(A) N#Cc1cnc2c(Cl)cc(N[C@@H](c3ccc(Cl)cc3)c3cn(C4CCNCC4)nn3)cc2c1Nc1ccc(F)c(Cl)c1
(B) Cc1nnc(C(Nc2cc(Cl)c3ncc(C#N)c(Nc4ccc(F)c(Cl)c4)c3c2)c2ccc(F)cc2)o1 (stereo not shown)
[ask] Endpoint returns whichever of A and B has the numerically higher pIC50. To answer, give the label that identifies your chosen option.
[reply] A

---

# System: TNFα production in LPS-stimulated human monocytes
# procedure_details: Cot Monocyte TNFα Cell Based Assay
# settings: Homo sapiens, Monocyte, LPS-stimulated human monocytes, TNFα TR-FRET; read-out: EC50 TNF
pEC50: −log10 of the molar value.
measured_parameter: pEC50

// below: answered compounds
Sure, the documented pEC50 for [2H][C@](Nc1cc(C#N)c2ncc(C#N)c(NC3CCCC3(C)C)c2c1)(c1ccc(F)cc1)c1cn(C2CC2)nn1 (stereo partly shown) [Example 1034] is 7.03

Sure, the documented pEC50 for Cc1cc(F)ccc1[C@H](Nc1cc(C#N)c2ncc(C#N)c(NCC(C)(C)C)c2c1)c1cn(C2(C(F)F)CC2)nn1 [Example 1083] is 7.20

(I) Cc1c([C@H](Nc2cc(Cl)c3ncc(C#N)c(NCC(C)(C)C)c3c2)c2cn(C3(C(F)(F)F)CC3)nn2)cccc1-n1nccn1 [Example 1039]
(II) Cc1c(-c2cncn2C)cccc1[C@H](Nc1cc(C#N)c2ncc(C#N)c(NCC(C)(C)C)c2c1)c1cn(C2(C(F)(F)F)CC2)nn1 [Example 1135]
(III) Cc1nnc(C2(n3cc([C@@H](Nc4cc(Cl)c5ncc(C#N)c(NCC(C)(C)C)c5c4)c4ccccc4Cl)nn3)CC2)o1 [Example 1110]
[ask] Hello, I need these entries ordered by pEC50, highest reading first. Thanks! Use the labels to give the requested order.
[reply] II, III, I

(a) [2H][C@](Nc1cc(Cl)c2ncc(C#N)c(NCC(C)(C)C)c2c1)(c1ccc(Cl)cc1)c1cn(C2CCN(C3CC3)CC2)nn1 [Example 982]
(b) Cc1c(-c2ccnnc2)cccc1[C@H](Nc1cc(Cl)c2ncc(C#N)c(NCC(C)(C)C)c2c1)c1cn(C2(C(F)F)CC2)nn1 [Example 1123]
[ask] Endpoint returns whichever of a and b has the numerically higher pEC50. To answer, give the label that identifies your chosen option.
[reply] b
(b: 7.38, a: 6.27)

Reference source: patent US10316017B2
